# System: 3T3 murine fibroblasts
# methodDescription: Cytotoxicity assay (resazurin), 3T3
# Type: cell-based
# testConditions: Mus musculus, Fibroblast; 3T3 fibroblasts, 48 h, resazurin
assayEndpoint: IC50 (µM)
Value expressed in µM; do not type the unit.

Examples with answers:
CC(C)=CC[C@H]1C[C@@]23C[C@@H](CC=C(C)C)C(C)(C)[C@@](CC=C(C)C)(C(=O)C(C(=O)c4ccc(O)c(O)c4)=C2OC1(C)C)C3=O ... 3.2
C=C(C)[C@@H](CC=C(C)C)C[C@@]12C[C@@H](CC=C(C)C)C(C)(C)[C@@](CC=C(C)C)(C(=O)C(C(=O)c3ccc(O)c(O)c3)=C1O)C2=O [garcinol, reference compound] ... 8.7
CN1C/C(=C\c2ccc(S(F)(F)(F)(F)F)cc2)C(=O)/C(=C/c2ccc(S(F)(F)(F)(F)F)cc2)C1 [MePip-SF5] ... 0.7

Below: the item to evaluate.
Look up IC50: `COc1cc(/C=C/C(=O)CC(=O)/C=C/c2ccc(O)c(OC)c2)ccc1O`
6.8
